Assay: Inhibition of Saccharomyces cerevisiae alpha-glucosidase for 15 mins by multiplate reader method using 0.7 mM p-nitrophenyl-alpha-D-glucopyranoside as substrate
Conditions: read-out: IC50
RECORDED METRIC: IC50 (µM)

Solved cases below.
[
  {
    "CPD SMILES": "COc1cc(-c2nc3ccccc3c(=O)[nH]2)cc(OC)c1OC",
    "REPORTED RESULT": 118
  },
  {
    "CPD SMILES": "CCOc1ccccc1-c1nc2ccccc2c(=O)[nH]1",
    "REPORTED RESULT": 0.57
  },
  {
    "CPD SMILES": "CCOc1ccc(-c2nc3ccccc3c(=O)[nH]2)cc1",
    "REPORTED RESULT": 3.25
  },
  {
    "CPD SMILES": "COc1ccc(O)c(-c2nc3ccccc3c(=O)[nH]2)c1",
    "REPORTED RESULT": 1.15
  },
  {
    "CPD SMILES": "O=c1[nH]c(-c2c(Cl)cccc2Cl)nc2ccccc12",
    "REPORTED RESULT": 68.1
  }
]

[P] O=c1[nH]c(-c2ccccc2O)nc2ccccc12
[Q] COc1ccc(-c2nc(O)c3ccccc3n2)cc1OC
Problem: Select one. Lower IC50: P or Q Identify your pick by its label.
Solution: Q
(Q: 0.86 µM, P: 10.4 µM)

[a] Cc1ccc(-c2nc3ccccc3c(=O)[nH]2)cc1
[b] CCOc1cc(-c2nc3ccccc3c(=O)[nH]2)ccc1O
Problem: Of a and b , which shows the smaller IC50 value? Returns: label corresponding to the selected item.
Solution: b
(b: 0.3 µM, a: 76 µM)
